Examples of sequences with documented pre-steady-state target cleavage rate follow.
# Tested on: MIWI (PIWIL1) piRISC loaded with Kctd7 piRNA (30 nt);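 further: 1 nM active piRISC with 0.1 nM target library at 33 °C single turnover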
# assay-protocol: pre-steady-state target cleavage rate (min^-1); MIWI and MILI are mouse PIWI proteins and EfPiwi is from a freshwater sponge; tags in brackets are library labels; higher = faster piRNA-guided slicing of the target;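 further: 1 nM active piRISC with 0.1 nM target library at 33 °C single turnover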
# conditions-used: guide: Kctd7 piRNA 5'p-UGUUAAUCUCUCAGAGAAGGUGACAGUGAU; auxiliary factor: 500 nM mouse GTSF1
Over roughly 6,600 sequences, “pre-steady-state target cleavage rate” has its median near 0.07; the highest 2% begin near 0.72. The list comes from a sample in which the highest values are over-represented; it also holds close analogues and randomly drawn sequences.
Write the number on its own, no unit after it.

Here is how some sequences turned out for pre-steady-state target cleavage rate.
> print(dat)
                              residue.codes                              study.system  experimental.value
1  UACACUGUCACCUUCUCUGAGAGAUUAACC [g2:g28:cont:t1C]  MIWI (PIWIL1) piRISC loaded with Kctd7 piRNA (30 nt)               0.391
2            UAGUCUGUCACCUCCUCUGAGAGAUUAACA  MIWI (PIWIL1) piRISC loaded with Kctd7 piRNA (30 nt)               0.726
3            AUCACUGCCACCUUCUCUGAGAGAUUAACA  MIWI (PIWIL1) piRISC loaded with Kctd7 piRNA (30 nt)               0.773
4            UACACUGUCACCUUCUCUCUGAGAUUAACA  MIWI (PIWIL1) piRISC loaded with Kctd7 piRNA (30 nt)              0.0197

Q) Record request: pre-steady-state target cleavage rate value, item UACACUGUCACCUUCUCUGAGAGAUUAACA [g2:g28:cont:t1A]
A) 0.563
